System: Rattus norvegicus
ASSAY REMARKS: Compound was evaluated for the lipid soluble radioactivity extracted from rat liver at 0.5 hr after intravenous administration.
Format: functional
What Extracted was measured for each of the following?
Give your result in % as a bare value.

Quick note, Extracted for `CCCCCCCCCCCCCCCC(=O)OC(COC(=O)Cc1c(I)cc(I)c(N)c1I)COC(=O)Cc1c(I)cc(I)c(N)c1I` landed at 90.5

Quick note, Extracted for CCC(Cc1c(I)cc(I)c(N)c1I)C(=O)OCC(COC(=O)C(CC)Cc1c(I)cc(I)c(N)c1I)OC(=O)C(CC)Cc1c(I)cc(I)c(N)c1I (stereo not drawn) landed at 89

Quick note, Extracted for CCCCCCCCCCCCCCCC(=O)OC(COC(=O)C(CC)Cc1c(I)cc(I)c(N)c1I)COC(=O)C(CC)Cc1c(I)cc(I)c(N)c1I (stereo not drawn) landed at 88.4

---

System: Rattus norvegicus
ASSAY REMARKS: Biodistribution in Rat lung after 30 minutes of iv administration
Assay type: ADME, organism-based
CONDITIONS: in vivo, 0.5 h
What Biodistribution was measured for each of the following?
Give your result in % as a bare value.

Quick note, Biodistribution for `Nc1c(I)cc(I)c(CCCCCCCCCCCCCCCCC(=O)OCC(COC(=O)CCCCCCCCCCCCCCCCc2c(I)cc(I)c(N)c2I)OC(=O)CCCCCCCCCCCCCCCCc2c(I)cc(I)c(N)c2I)c1I` landed at 0.94

Quick note, Biodistribution for `CCCCCCCCCCCCCCCC(=O)OC(COC(=O)CCCCCCCCCCCCCCCCc1c(I)cc(I)c(N)c1I)COC(=O)CCCCCCCCCCCCCCCCc1c(I)cc(I)c(N)c1I` landed at 1.03

Quick note, Biodistribution for `Nc1c(I)cc(I)c(CCC(=O)OCC(COC(=O)CCc2c(I)cc(I)c(N)c2I)OC(=O)CCc2c(I)cc(I)c(N)c2I)c1I` landed at 6.63

Quick note, Biodistribution for `Nc1c(I)cc(I)c(CCCCCCCCCCCC(=O)OCC(COC(=O)CCCCCCCCCCCc2c(I)cc(I)c(N)c2I)OC(=O)CCCCCCCCCCCc2c(I)cc(I)c(N)c2I)c1I` landed at 0.67

Quick note, Biodistribution for CCC(Cc1c(I)cc(I)c(N)c1I)C(=O)OCC(COC(=O)C(CC)Cc1c(I)cc(I)c(N)c1I)OC(=O)C(CC)Cc1c(I)cc(I)c(N)c1I (stereo not given) landed at 0.67
